- PROTOCOL_NOTES: qHTS for Inhibitors of Plasmodium falciparum (7G8) proliferation (AID 504316); note: nearly all actives have a fitted effect of over 65% in size
- MEASUREMENT_PARAMETERS: P. falciparum 7G8 in erythrocytes, SYBR Green DNA, 72 h; series mostly up to 6.7 µM
- Excerpt: Plasmodium falciparum is a virulent malarial parasite that kills 1-2 million people worldwide each year. Malaria not only inflicts tremendous suffering and morbidity on the human population, but has dramatically influenced the course of civilization with profound sociological and economic implications (Shah, S. 2010). […] Because mature erythrocytes lack DNA, only Plasmodium-derived DNA is detected. […]
Records with an inconclusive call do not appear. Activity calls are given as the source filed them. Calls come from the whole dose curve; as a rule, active = well fitted inhibition curve with a large enough effect; inconclusive = small, poorly fitted or top-dose-only effect; inactive = flat fitted curve, though single readings scatter.
Outcome codes: 1 = active, 0 = inactive

{"COMPOUND": "Cc1cc2c(c(=O)n1Cc1ccccc1)[C@H]1O[C@](CCCCN3C(=O)c4ccccc4C3=O)(Cc3c1ccc1ccccc31)O2", "CLASS_LABEL": 1}
{"COMPOUND": "CC(C)=CCC12CC3[C@@H](O)C(C(=O)c4ccccc4)(C1=O)C(=O)C(CC=C(C)C)(C2=O)C3(C)C (stereo not given in full)", "CLASS_LABEL": 0}
{"COMPOUND": "C#CC1(O)C(OC)=CC2C(=O)C1C(c1ccccc1)C2C (stereo not given)", "CLASS_LABEL": 0}
{"COMPOUND": "CCN1C(=NCc2ccc3c(c2)OCO3)N[C@@H](c2ccccc2)[C@H](C(=O)OC)[C@H]1C", "CLASS_LABEL": 0}
{"COMPOUND": "COC(=O)[C@H]1[C@H](C)[C@@]2(O)c3ccccc3N(C)[C@@]1(C)[C@H]2O", "CLASS_LABEL": 0}
{"COMPOUND": "COc1cccc(CO[C@H]2C=C[C@@H](c3ccccc3)O[C@H]2CBr)c1", "CLASS_LABEL": 0}
{"COMPOUND": "COC(=O)NC(C=Cc1ccccc1)C(C(C)=O)C(=O)OC (stereo not given)", "CLASS_LABEL": 0}
{"COMPOUND": "CCOC(=O)CN1C(=O)[C@@]2(C[C@@H](C)C[C@@H](C)O2)c2ccccc21", "CLASS_LABEL": 0}
{"COMPOUND": "CCCCn1c(C)cc2c(c1=O)[C@H]1O[C@](CCCC)(Cc3cc(C#N)ccc31)O2", "CLASS_LABEL": 1}
{"COMPOUND": "CC1(OC(=O)C2CCCC2)C(=O)C=C2C=C(c3ccsc3)N(C(CO)CO)C=C2C1=O (stereo not given)", "CLASS_LABEL": 0}
{"COMPOUND": "COC(=O)N1[C@H]2CC[C@@]3(C)CC(=O)C[C@]1(C)C3c1ccccc12", "CLASS_LABEL": 0}
{"COMPOUND": "COCC1=C(C(=O)OC)C(c2ccccc2)N(C(C)=O)C(=O)N1 (stereo not given)", "CLASS_LABEL": 0}
{"COMPOUND": "CC(C)(C)Nc1oc(-c2ccccc2)nc1-c1ccccc1F", "CLASS_LABEL": 0}
{"COMPOUND": "CC(C)[C@@H](OCc1ccccc1)[C@H](C)C=NO[C@H](C)c1cn([C@H](CO)Cc2ccccc2)nn1", "CLASS_LABEL": 0}
{"COMPOUND": "O=C(NN=C1C[C@@H](O)[C@H](O)[C@H]2[C@@H]3C(=O)N(C4CCCCC4)C(=O)[C@@H]3CC[C@@H]12)OCc1ccccc1", "CLASS_LABEL": 0}
{"COMPOUND": "COC(=O)c1ccc(CN2C(=O)[C@@]3(CC(C)=CC[C@@H](C)O3)c3ccccc32)cc1", "CLASS_LABEL": 0}
{"COMPOUND": "C=C(CCN1C=C(C(=O)OCC)C(c2ccccc2)NC1=O)OC (stereo not given)", "CLASS_LABEL": 0}
{"COMPOUND": "COc1ccc(-c2nc(-c3ccccc3)oc2NC2CCCCC2)cc1", "CLASS_LABEL": 0}
{"COMPOUND": "C=CCCN1C(=O)NC(c2ccccc2)C(C(=O)OC)=C1C (stereo not given)", "CLASS_LABEL": 0}
{"COMPOUND": "O=C1CCCC=C1C(O)COCc1ccccc1 (stereo not given)", "CLASS_LABEL": 0}

* * *

- SYSTEM_UNDER_TEST: Cytochrome P450 2C19 (Homo sapiens) (UniProt P33261)
- Sequence (P33261 whole entry, looked up): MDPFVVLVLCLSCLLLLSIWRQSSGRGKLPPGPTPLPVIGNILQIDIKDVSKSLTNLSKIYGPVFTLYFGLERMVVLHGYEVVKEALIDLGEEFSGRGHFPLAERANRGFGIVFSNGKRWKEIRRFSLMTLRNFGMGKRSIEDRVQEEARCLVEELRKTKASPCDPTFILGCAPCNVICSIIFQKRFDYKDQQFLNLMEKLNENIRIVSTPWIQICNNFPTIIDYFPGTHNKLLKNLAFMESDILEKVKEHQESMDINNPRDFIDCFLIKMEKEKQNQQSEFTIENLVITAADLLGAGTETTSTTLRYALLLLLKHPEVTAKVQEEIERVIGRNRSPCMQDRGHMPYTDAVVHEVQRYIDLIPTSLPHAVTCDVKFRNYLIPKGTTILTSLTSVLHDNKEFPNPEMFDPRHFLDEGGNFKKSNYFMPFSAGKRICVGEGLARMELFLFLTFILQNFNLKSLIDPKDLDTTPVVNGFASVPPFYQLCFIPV
- PROTOCOL_NOTES: qHTS Assay for Inhibitors and Substrates of Cytochrome P450 2C19 (AID 899); note: nearly all actives have a fitted effect of over 60% in size
- MEASUREMENT_PARAMETERS: recombinant CYP2C19, luciferin-H EGE luminescence; series mostly up to 57.1 µM
Results filed as inconclusive are left out. Active and inactive are the calls of the source. Calls follow the shape of the dose curve; as a rule, active = well fitted inhibition curve with a large enough effect; inconclusive = small, poorly fitted or top-dose-only effect; inactive = no such curve, though single readings can be large or run the other way.
Outcome codes: True for active, False for inactive

{"SMILES_ENTRY": "CC(=O)c1ccc(OCc2ccccc2)c(C)c1O", "CLASS_LABEL": "True"}
{"SMILES_ENTRY": "CCCCOC(=O)c1cc2c(cn1)[nH]c1ccccc12", "CLASS_LABEL": "True"}
{"SMILES_ENTRY": "C[C@@H](C(=O)O)c1ccc(-c2ccccc2)c(F)c1", "CLASS_LABEL": "True"}
{"SMILES_ENTRY": "O=C(Cc1ccccc1)Nc1nc2ccc(Cl)cc2c2nc(-c3ccco3)nn12", "CLASS_LABEL": "True"}
{"SMILES_ENTRY": "CN1CCN(C2=Cc3ccccc3Oc3ccc(Cl)cc32)CC1", "CLASS_LABEL": "True"}
{"SMILES_ENTRY": "CC#CCOC(=O)c1c(C)nc2sc3c(c2c1N)CC[C@@H](O)C3", "CLASS_LABEL": "False"}
{"SMILES_ENTRY": "O=C1CC[C@H](N2C(=O)c3ccccc3C2=O)C(=O)N1", "CLASS_LABEL": "False"}
{"SMILES_ENTRY": "Cc1nc2c(O)cccc2c(=O)[nH]1", "CLASS_LABEL": "True"}
{"SMILES_ENTRY": "CCC(=O)N[C@@H]1Cc2ccccc2[C@@H](c2ccccc2)C1", "CLASS_LABEL": "True"}
{"SMILES_ENTRY": "CCCCCCCCCCCCC(=O)N1CCCC[C@H]1CNC(=O)[C@@H](N)CCCCN", "CLASS_LABEL": "True"}
{"SMILES_ENTRY": "COc1ccc(C(=O)CC(=O)c2c(O)cc(OC)cc2OC)cc1", "CLASS_LABEL": "True"}

* * *

- PROTOCOL_NOTES: qHTS for inhibitors of ER calcium dysfunction: SERCaMP assay screened against the NCATS CANVASS Library (AID 1347393); note: nearly all actives have a fitted effect of over 40% in size
- MEASUREMENT_PARAMETERS: SH-SY5Y GLuc-SERCaMP (Gaussia luciferase released on ER calcium loss) secretion, thapsigargin, luminescence; series mostly up to 76.6 µM
- Text: Natural products and their derivatives continue to be wellsprings of nascent therapeutic potential. […] To address this issue, the Canvass library of natural products was assembled (https://tripod.nih.gov/canvass), in collaboration with academic and industry researchers, for quantitative high-throughput screening (qHTS) across a diverse set of cell-based and biochemical assays. […]
Results filed as inconclusive are left out. Active and inactive are the calls of the source. The call rests on the fitted dose curve; in most records, active means well fitted inhibition curve with a large enough effect; inconclusive means small, poorly fitted or top-dose-only effect; inactive means no such curve, though single readings can be large or run the other way.
Outcome codes: 1.0 = active, 0.0 = inactive

{"MOLECULE": "C=C1C[C@@]23C=CC(=O)[C@@](C)(CCC(=O)Nc4c(OC5O[C@H](CO)[C@@H](O)[C@H](O)[C@H]5O)ccc(C(=O)O)c4O)C2C[C@@H]1CC3 (stereo partly drawn)", "CLASS_LABEL": 0.0}
{"MOLECULE": "CO[C@@H]1C[C@@H](C[C@H]2CC[C@H](C)[C@H]([C@@H](C)C(=O)O)O2)O[C@]2(O[C@](C)([C@H]3CC[C@@](C)([C@@H]4O[C@@H]([C@H]5O[C@](C)(O)[C@H](C)C[C@@H]5C)C[C@@H]4C)O3)C[C@H]2C)[C@@H]1C", "CLASS_LABEL": 0.0}
{"MOLECULE": "CCCCCCC[C@@H](C/C=C/CCC(=O)NCCc1c[nH]c2ccccc12)OC", "CLASS_LABEL": 1.0}
{"MOLECULE": "C[C@@H]1O[C@@H](Oc2c(-c3ccc(O)cc3)oc3cc(O)cc(O)c3c2=O)[C@H](O)[C@H](O)[C@H]1O", "CLASS_LABEL": 0.0}
{"MOLECULE": "Oc1ccc(/C=C2/c3cc(O)cc(O)c3C(c3ccc(O)cc3)[C@H]2c2cc(O)cc(O)c2)cc1 (stereo partly drawn)", "CLASS_LABEL": 0.0}
{"MOLECULE": "C=CC(=C)CC[C@]1(C)[C@H]2C[C@H](OC(=O)C(C)CC)C=C3[C@H](OC(C)=O)O[C@H](OC(C)=O)[C@@]32[C@H](OC)C[C@@H]1C (stereo partly drawn)", "CLASS_LABEL": 0.0}
{"MOLECULE": "O=C(O)CC1OCc2c(O)cccc21 (stereo not drawn)", "CLASS_LABEL": 0.0}
{"MOLECULE": "CC(=O)[C@@H]1[C@@H](O)C[C@H]2[C@]3(C)CC[C@H]4C(C)(C)CCC[C@]4(CO)[C@H]3C[C@H]3OC(=O)[C@@H]1[C@@]32C", "CLASS_LABEL": 1.0}
{"MOLECULE": "O=C1c2c(O)cc(O)cc2O[C@@H](c2ccc(O)cc2)[C@@H]1c1c(O)cc(O)c2c(=O)cc(-c3ccc(O)c(O)c3)oc12", "CLASS_LABEL": 0.0}
{"MOLECULE": "C/C=C1/CC[C@@H]2c3[nH]c4ccccc4c3CCN2C1", "CLASS_LABEL": 1.0}
{"MOLECULE": "CC1(C)CCC[C@]2(C)[C@@H]1CC[C@@]13C[C@@H](CC[C@H]12)C(C)(O)C3 (stereo partly drawn)", "CLASS_LABEL": 0.0}
{"MOLECULE": "C[C@@H]1O[C@@H](O[C@@H]2[C@@H](O)[C@H](O[C@@H]3[C@@H](O)[C@@H](O)C(O[C@H]4[C@H](OC(=O)[C@]56CCC(C)(C)C[C@H]5C5=CCC7[C@@]8(C)C[C@H](O)[C@H](O[C@@H]9C[C@H](CO)[C@@H](O)[C@H](O)[C@H]9O)[C@@](C)(CO)C8[C@H](O)C[C@@]7(C)[C@]5(C)CC6)OC[C@H](O)[C@@H]4O)O[C@H]3C)OC[C@H]2O)[C@H](O)[C@H](O)[C@H]1O (stereo partly drawn)", "CLASS_LABEL": 0.0}
{"MOLECULE": "O=Cc1ccc2n1C[C@@]1(C[C@H](O)[C@@H](CO)O1)OC2", "CLASS_LABEL": 0.0}
